Molecular target: Substance-K receptor (Rattus norvegicus) (UniProt P16610)
Sequence (whole entry): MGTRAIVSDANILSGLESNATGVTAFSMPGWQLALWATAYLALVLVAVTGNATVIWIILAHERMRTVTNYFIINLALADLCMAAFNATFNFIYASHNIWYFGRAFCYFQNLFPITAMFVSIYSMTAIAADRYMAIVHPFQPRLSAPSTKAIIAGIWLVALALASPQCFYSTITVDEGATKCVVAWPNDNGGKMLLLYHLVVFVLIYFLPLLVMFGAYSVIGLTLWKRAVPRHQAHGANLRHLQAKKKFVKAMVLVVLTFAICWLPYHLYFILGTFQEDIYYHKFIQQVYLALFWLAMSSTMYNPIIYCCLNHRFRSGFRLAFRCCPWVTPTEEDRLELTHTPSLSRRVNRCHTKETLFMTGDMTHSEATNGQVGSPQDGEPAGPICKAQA
Assay: Antagonist activity at NK2 receptor in rat urinary bladder assessed as effect on beta-Ala8]NKA(4-10)-induced mechanical activity
Assay type: functional
Details: filed as antagonist
assayReadout: pKb

>  <molecule>
CS(=O)(=O)N1CCC(N[C@@H]2CC(=O)N[C@@H](Cc3c[nH]c4ccccc34)C(=O)N[C@@H](Cc3ccccc3)C(=O)N[C@H](Cc3ccccc3)CNC2=O)CC1

>  <targetOrSystem>
Substance-K receptor (Rattus norvegicus) (UniProt P16610)

>  <pKb>
9.5

$$$$
>  <molecule>
O=C1CC(NC(=O)[C@@H](O)[C@H](O)[C@@H](O[C@@H]2O[C@H](CO)[C@H](O)[C@H](O)[C@H]2O)[C@@H](O)CO)C(=O)NC[C@@H](Cc2ccccc2)NC(=O)[C@H](Cc2ccccc2)NC(=O)[C@H](Cc2c[nH]c3ccccc23)N1 (stereo not given in full)

>  <targetOrSystem>
Substance-K receptor (Rattus norvegicus) (UniProt P16610)

>  <pKb>
8.7

$$$$
>  <molecule>
O=C1C[C@@H](NC2CCS(=O)(=O)CC2)C(=O)NC[C@@H](Cc2ccccc2)NC(=O)[C@H](Cc2ccccc2)NC(=O)[C@H](Cc2c[nH]c3ccccc23)N1

>  <targetOrSystem>
Substance-K receptor (Rattus norvegicus) (UniProt P16610)

>  <pKb>
9.3

$$$$
>  <molecule>
O=C1C[C@@H](NC2CCOCC2)C(=O)N[C@@H](Cc2c[nH]c3ccccc23)C(=O)N[C@@H](Cc2ccccc2)C(=O)N[C@H](Cc2ccccc2)CN1

>  <targetOrSystem>
Substance-K receptor (Rattus norvegicus) (UniProt P16610)

>  <pKb>
7.4

$$$$
>  <molecule>
O=C1C[C@@H](NC[C@H](O)[C@@H](O)[C@@H](O[C@H]2O[C@H](CO)[C@@H](O)[C@H](O)[C@H]2O)[C@H](O)CO)C(=O)NC[C@@H](Cc2ccccc2)NC(=O)[C@H](Cc2ccccc2)NC(=O)[C@H](Cc2c[nH]c3ccccc23)N1

>  <targetOrSystem>
Substance-K receptor (Rattus norvegicus) (UniProt P16610)

>  <pKb>
8.5

$$$$

====

biological target: Substance-K receptor (Homo sapiens); assay: Displacement of [125I]neurokinin A from human NK2 receptor expressed in CHOK1 cells; format: cell-based, CHO-K1
Sequence (P21452 whole entry): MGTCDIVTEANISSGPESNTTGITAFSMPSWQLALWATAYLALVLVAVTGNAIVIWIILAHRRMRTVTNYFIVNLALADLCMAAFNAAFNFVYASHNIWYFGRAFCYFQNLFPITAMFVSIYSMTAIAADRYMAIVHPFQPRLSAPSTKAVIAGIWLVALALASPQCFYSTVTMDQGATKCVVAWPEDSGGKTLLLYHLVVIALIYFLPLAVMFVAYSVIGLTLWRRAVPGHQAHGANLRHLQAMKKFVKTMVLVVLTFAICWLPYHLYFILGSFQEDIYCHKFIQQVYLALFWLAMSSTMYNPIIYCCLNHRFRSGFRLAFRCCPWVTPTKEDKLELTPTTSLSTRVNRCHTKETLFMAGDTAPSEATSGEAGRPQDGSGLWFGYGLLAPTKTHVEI
Entries and their Ki

Answer with reported Ki of O=C1C[C@@H](NC[C@H](O)[C@@H](O)[C@H](O[C@@H]2O[C@H](CO)[C@H](O)[C@H](O)[C@H]2O)[C@H](O)CO)C(=O)NC[C@@H](Cc2ccccc2)NC(=O)[C@H](Cc2ccccc2)NC(=O)[C@H](Cc2c[nH]c3ccccc23)N1
1.26 nM (antagonist)

State its Ki for this compound: O=C1C[C@@H](NC(=O)CN2CCC(N3CC[S+]([O-])CC3)CC2)C(=O)NC[C@@H](Cc2ccccc2)NC(=O)[C@H](Cc2ccccc2)NC(=O)[C@H](Cc2c[nH]c3ccccc23)N1
0.251 nM (antagonist)

Give a short answer stating reported Ki for O=C1C[C@@H](NC2CCSCC2)C(=O)NC[C@@H](Cc2ccccc2)NC(=O)[C@H](Cc2ccccc2)NC(=O)[C@H](Cc2c[nH]c3ccccc23)N1 .
0.1 nM (antagonist)

Give recorded Ki. CN(C1CCOCC1)[C@@H]1CC(=O)N[C@@H](Cc2c[nH]c3ccccc23)C(=O)N[C@@H](Cc2ccccc2)C(=O)N[C@H](Cc2ccccc2)CNC1=O
0.158 nM (antagonist)

Supply measured Ki of CN1CCC(N[C@@H]2CC(=O)N[C@@H](Cc3c[nH]c4ccccc34)C(=O)N[C@@H](Cc3ccccc3)C(=O)N[C@H](Cc3ccccc3)CNC2=O)CC1 in your reply.
0.2 nM (antagonist)
